# Tested on: UCD52 (cells of a triple-negative basal-like breast cancer xenograft);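 note: PDX cells carrying CMV promoter-driven luciferase, viability read as total photon flux per second by IVIS imaging following D-luciferin, vehicle control 0.1% DMSO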
# assay method text: cell viability (% of vehicle); higher = less cytotoxic
# measurement conditions: 10 µM; 72 h

compound	tgt	cell viability
COc1ccc(-c2nc3ccc(C4=NNC(=O)CC4C)cc3[nH]2)cc1 (stereo not drawn) [Pimobendan]	UCD52	119
Cc1ncc([N+](=O)[O-])n1CCO [Metronidazole]	UCD52	77.3
O=C1c2ccccc2C(=O)C1c1ccccc1 [Phenindione]	UCD52	104
COc1ccc2c(c1)C(=O)N(CCc1ccc(S(=O)(=O)NC(=O)NC3CCCCC3)cc1)C(=O)C2(C)C [Gliquidone]	UCD52	93.5
CC(C)(C)c1ccc(C(=O)CCCN2CCC(OC(c3ccccc3)c3ccccc3)CC2)cc1 [Ebastine]	UCD52	52.1
Cl.NCCCC(N)(C(=O)O)C(F)F.O (racemic) [DL-α-Difluoromethylornithine (hydrochloride hydrate)]	UCD52	85.3
Cl.NC(CO)C(=O)NNCc1ccc(O)c(O)c1O (stereo not drawn) [Benserazide HCl]	UCD52	69.6
CCOc1nc2cccc(C(=O)O)c2n1Cc1ccc(-c2ccccc2-c2nc(=O)o[nH]2)cc1 [Azilsartan]	UCD52	83.3

Origin of measurements: the supplement of paper PMC6992640
